assay procedure: Static thermostability of stabilized resin, simplified method (GARDNER sub-scale), Compound A
experimental parameters: 210° C, 15 min
recorded endpoint: Colouration of sheet (GARDNER sub-scale)

Answered cases to consult:
CCCCSc1ccc(-c2cc3ccccc3[nH]2)cc1	13 GARDNER degrees
CSc1ccc(-c2cc3ccccc3[nH]2)cc1	10 GARDNER degrees
c1ccc(-c2ccc(-c3cc4ccccc4[nH]3)cc2)cc1	12 GARDNER degrees
CCCCCCCCCCCCSc1ccc(-c2cc3ccccc3[nH]2)cc1	13 GARDNER degrees
Nc1ccc(-c2cc3ccccc3[nH]2)cc1	12 GARDNER degrees

stdin: Field request: Colouration of sheet (GARDNER sub-scale) | item: O=C(O)COc1ccc(-c2cc3ccccc3[nH]2)cc1
stdout: brown

====

assay procedure: Static thermostability of stabilized resin, simplified method (GARDNER sub-scale), Compound A
experimental parameters: 210° C, 15 min
Experimental: The stabilizing power of the substances of the invention was studied from two points of view: These studies were performed with six different formulae of vinyl resins (hereinafter referred to as Compounds). […] 2. It is also possible to use a simplified method which is more rapid and with which valid results are also obtained: a reference scale is drawn up with sheets of thermally treated polyvinyl chloride, of which the colourations have been definitely determined in GARDNER degrees as above. […]
What Colouration of sheet (GARDNER sub-scale) was measured for each of the following?
Entry rule: numbers only, all in GARDNER degrees.

stdin: Field request: Colouration of sheet (GARDNER sub-scale) | item: Oc1ccc(-c2cc3ccccc3[nH]2)cc1 [Stabilizer 20, 2-(4'-hydroxy-phenyl)-indole]
stdout: 11

stdin: Field request: Colouration of sheet (GARDNER sub-scale) | item: CCOC(=O)COc1ccc(-c2cc3ccccc3[nH]2)cc1 [Stabilizer 13, 2-(4'-carbethoxymethoxy-phenyl)-indole]
stdout: 11

stdin: Field request: Colouration of sheet (GARDNER sub-scale) | item: CC(C)Sc1ccc(-c2cc3ccccc3[nH]2)cc1 [Stabilizer 17, 2-(4'-isopropylthio-phenyl)-indole]
stdout: 13

stdin: Field request: Colouration of sheet (GARDNER sub-scale) | item: CC(=O)Nc1ccc(-c2cc3ccccc3[nH]2)cc1 [Stabilizer 14, 2-(4'-N-acetylamino-phenyl)-indole]
stdout: 12
